- ASSAYED TARGET: HMG-CoA reductase
- EXPERIMENTAL PROTOCOL: HMG-CoA Reductase Isolation And Assay (ammonium sulfate precipitated enzyme from rat liver)
- Format: biochemical, male Wistar rats
- ASSAY CONDITIONS: Table II, racemic mixture
MEASUREMENT NAME: log10(IC50) (log10 of the value in µM)
Heads up: the numbers are on a log10 scale; they represent IC50 in µM.

Known results for compounds:
COMPOUND: O=C(O)C[C@H](O)C[C@H](O)/C=C/c1nn(Cc2ccc(F)cc2)c2c1CCCCC2 (relative stereo)
ASSAYED TARGET: HMG-CoA reductase
MEASUREMENT NAME: log10(IC50)
MEASURED NUMBER: 2.00
--
COMPOUND: O=C(O)C[C@H](O)C[C@H](O)/C=C/c1nn(-c2ccc(F)cc2)c2c1CCCC2C1CCCCC1 (stereo partly shown)
ASSAYED TARGET: HMG-CoA reductase
MEASUREMENT NAME: log10(IC50)
MEASURED NUMBER: 1.67
--
COMPOUND: O=C(O)C[C@H](O)C[C@H](O)/C=C/c1nn(-c2ccc(F)cc2)c2c1CCC2 (relative stereo)
ASSAYED TARGET: HMG-CoA reductase
MEASUREMENT NAME: log10(IC50)
MEASURED NUMBER: 2.00
--
COMPOUND: O=C(O)C[C@H](O)C[C@H](O)/C=C/c1nn(-c2ccc(F)cc2)c2c1CCCC2Cc1ccc(F)cc1 (stereo partly shown)
ASSAYED TARGET: HMG-CoA reductase
MEASUREMENT NAME: log10(IC50)
MEASURED NUMBER: 1.49

Look up and state reported log10(IC50) for O=C(O)C[C@H](O)C[C@H](O)/C=C/c1nn(-c2ccc(F)cc2)c2c1CCCC2CC=Cc1ccccc1 (stereo partly shown) 0.48

Look up and state reported log10(IC50) for CC1CCCc2c(/C=C/[C@@H](O)C[C@@H](O)CC(=O)O)nn(-c3ccc(F)cc3)c21 (stereo partly shown) 2.00

Look up and state reported log10(IC50) for CCC1CCCc2c(/C=C/[C@@H](O)C[C@@H](O)CC(=O)O)nn(-c3ccc(F)cc3)c21 (stereo partly shown) 1.54
